target: NaV1.6 (Homo sapiens (Human)); experiment: Sodium Influx Assay (Flux), NaV1.6; format: cell-based; conditions: Trex HEK293 cells, ANG2 dye, inactivated state;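 also: Tetracycline-induced cells, compounds applied for one hour at room temperature with modulators holding channels open, IC50 from percent inhibition of sodium influx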
Sequence (Q9UQD0 whole entry, looked up): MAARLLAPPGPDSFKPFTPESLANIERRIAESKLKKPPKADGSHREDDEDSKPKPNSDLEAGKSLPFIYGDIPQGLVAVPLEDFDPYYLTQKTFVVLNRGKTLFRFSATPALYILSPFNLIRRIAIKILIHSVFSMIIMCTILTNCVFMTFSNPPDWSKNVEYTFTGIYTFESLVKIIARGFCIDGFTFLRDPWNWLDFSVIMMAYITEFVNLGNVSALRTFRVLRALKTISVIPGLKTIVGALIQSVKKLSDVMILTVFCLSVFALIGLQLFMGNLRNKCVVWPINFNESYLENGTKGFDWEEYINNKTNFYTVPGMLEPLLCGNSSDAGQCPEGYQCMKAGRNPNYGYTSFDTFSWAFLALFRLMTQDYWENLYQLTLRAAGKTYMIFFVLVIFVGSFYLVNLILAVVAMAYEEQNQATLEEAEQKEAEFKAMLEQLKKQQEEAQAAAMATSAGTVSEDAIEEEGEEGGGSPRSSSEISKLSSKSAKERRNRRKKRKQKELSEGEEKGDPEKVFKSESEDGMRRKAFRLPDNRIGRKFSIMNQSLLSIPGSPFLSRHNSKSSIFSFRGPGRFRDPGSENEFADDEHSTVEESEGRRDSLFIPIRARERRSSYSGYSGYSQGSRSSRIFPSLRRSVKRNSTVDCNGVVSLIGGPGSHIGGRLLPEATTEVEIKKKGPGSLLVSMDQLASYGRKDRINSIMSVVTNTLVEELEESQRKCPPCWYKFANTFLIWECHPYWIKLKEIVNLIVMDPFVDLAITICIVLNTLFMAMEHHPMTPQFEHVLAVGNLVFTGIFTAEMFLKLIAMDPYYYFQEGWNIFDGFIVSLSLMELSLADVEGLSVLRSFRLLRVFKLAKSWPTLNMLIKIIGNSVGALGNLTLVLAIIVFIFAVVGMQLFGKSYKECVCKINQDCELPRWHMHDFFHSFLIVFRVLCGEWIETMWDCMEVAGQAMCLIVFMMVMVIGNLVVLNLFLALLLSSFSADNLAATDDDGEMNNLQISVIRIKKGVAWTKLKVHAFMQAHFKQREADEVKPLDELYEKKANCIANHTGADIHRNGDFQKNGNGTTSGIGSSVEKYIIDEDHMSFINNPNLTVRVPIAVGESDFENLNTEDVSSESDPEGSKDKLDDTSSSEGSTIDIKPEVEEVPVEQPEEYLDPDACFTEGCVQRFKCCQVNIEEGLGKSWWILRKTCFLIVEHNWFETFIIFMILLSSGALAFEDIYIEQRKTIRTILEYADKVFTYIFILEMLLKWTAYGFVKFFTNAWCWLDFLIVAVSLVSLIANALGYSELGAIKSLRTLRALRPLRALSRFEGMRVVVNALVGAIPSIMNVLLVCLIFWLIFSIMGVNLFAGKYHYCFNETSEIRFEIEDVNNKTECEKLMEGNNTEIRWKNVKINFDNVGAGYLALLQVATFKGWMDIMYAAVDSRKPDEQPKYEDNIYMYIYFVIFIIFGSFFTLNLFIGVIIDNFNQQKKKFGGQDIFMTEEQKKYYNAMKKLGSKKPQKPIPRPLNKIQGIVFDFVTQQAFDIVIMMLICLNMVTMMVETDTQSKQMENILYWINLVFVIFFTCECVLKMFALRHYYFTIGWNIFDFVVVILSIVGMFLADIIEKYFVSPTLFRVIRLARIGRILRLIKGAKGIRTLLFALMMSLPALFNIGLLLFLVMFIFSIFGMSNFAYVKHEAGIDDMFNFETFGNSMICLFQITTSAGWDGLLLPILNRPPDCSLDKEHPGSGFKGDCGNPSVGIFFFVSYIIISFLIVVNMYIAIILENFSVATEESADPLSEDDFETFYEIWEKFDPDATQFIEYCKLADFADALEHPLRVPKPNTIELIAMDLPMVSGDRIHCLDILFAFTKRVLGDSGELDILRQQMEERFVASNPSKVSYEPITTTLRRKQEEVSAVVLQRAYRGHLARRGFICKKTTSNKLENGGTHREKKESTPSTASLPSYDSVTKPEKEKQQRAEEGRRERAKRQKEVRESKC
Sequence (Q07699 whole entry partner, looked up): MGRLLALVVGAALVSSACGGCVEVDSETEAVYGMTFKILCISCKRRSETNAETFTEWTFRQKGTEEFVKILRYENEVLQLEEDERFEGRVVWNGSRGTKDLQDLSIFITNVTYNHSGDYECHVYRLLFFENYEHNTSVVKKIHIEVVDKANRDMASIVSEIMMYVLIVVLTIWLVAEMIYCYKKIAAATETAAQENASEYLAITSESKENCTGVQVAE
Counter-ions that a name gives are not always drawn.
Here, each record is paired with measured IC50 data.
Just the number please, in nM, no unit attached.

// below: answered compounds
O=S(=O)(Nc1ccon1)c1ccc(NCc2c(F)cccc2CN2CCCC2)c(F)c1F [Example 294, 2,2,2-trifluoroacetate] = 688
O=S(=O)(Nc1ncns1)c1ccc(N[C@@H]2CCc3ccccc32)c(Cl)c1 [Example 35] = 839
Cc1c(NCc2ccccc2CN2CCC2)cc(F)c(S(=O)(=O)Nc2ncns2)c1F [Example 330] = 1
C[C@H](Nc1cc(F)c(S(=O)(=O)Nc2cccc(F)n2)cc1Cl)c1ccccc1Cl [Example 23] = 1520
Cc1c(NCc2c(F)cccc2CN2CCC2)cc(F)c(S(=O)(=O)Nc2cscn2)c1F [Example 304, 2,2,2-trifluoroacetate] = 8

Q. Which IC50 is reported with NaV1.6 (Homo sapiens (Human)) for this entry: O=S(=O)(Nc1cscn1)c1c(F)cc(NCc2ccccc2CN2CCC2)cc1F [Example 272, formate] ?
A. 163

Q. Which IC50 is reported with NaV1.6 (Homo sapiens (Human)) for this entry: C[C@H](Nc1cc(F)c(S(=O)(=O)Nc2cscn2)cc1Cl)c1cc(CCN2CCC2)ccc1F [Example 257, formate] ?
A. 490

Q. Which IC50 is reported with NaV1.6 (Homo sapiens (Human)) for this entry: Cc1cc(-c2cccc(F)c2CNc2cc(F)c(S(=O)(=O)Nc3cscn3)c(F)c2)ccn1 [Example 317, formate] ?
A. 328

Q. Which IC50 is reported with NaV1.6 (Homo sapiens (Human)) for this entry: O=S(=O)(Nc1cscn1)c1c(F)cc(NCc2c(F)cccc2CN2CCC3(CCO3)C2)cc1F (stereo not drawn) [Example 155, formate] ?
A. 250

Q. Which IC50 is reported with NaV1.6 (Homo sapiens (Human)) for this entry: C[C@H](Nc1cc(F)c(S(=O)(=O)Nc2nccs2)cc1Cl)c1ccc2ccccc2c1 [Example 15] ?
A. 7150

Q. Which IC50 is reported with NaV1.6 (Homo sapiens (Human)) for this entry: C[C@@H](Nc1cc(F)c(S(=O)(=O)Nc2cscn2)cc1Cl)c1cccc(CN(C)C)c1 [Example 254, formate] ?
A. 9440

Q. Which IC50 is reported with NaV1.6 (Homo sapiens (Human)) for this entry: CN(Cc1ccccc1CNc1cc(F)c(S(=O)(=O)Nc2cscn2)c(F)c1)C(C)(C)C [Example 202, 2,2,2-trifluoroacetate] ?
A. 534

----------
target: NaV1.5 (Homo sapiens (Human), UniProt Q14524); test: Sodium Influx Assay (Flux), NaV1.5; details: read-out: Flux NaV1.5 IC50; Trex HEK293 cells, ANG2 dye, inactivated state
Sequence (Q14524 other isoform, or with tags, fused parts or gaps): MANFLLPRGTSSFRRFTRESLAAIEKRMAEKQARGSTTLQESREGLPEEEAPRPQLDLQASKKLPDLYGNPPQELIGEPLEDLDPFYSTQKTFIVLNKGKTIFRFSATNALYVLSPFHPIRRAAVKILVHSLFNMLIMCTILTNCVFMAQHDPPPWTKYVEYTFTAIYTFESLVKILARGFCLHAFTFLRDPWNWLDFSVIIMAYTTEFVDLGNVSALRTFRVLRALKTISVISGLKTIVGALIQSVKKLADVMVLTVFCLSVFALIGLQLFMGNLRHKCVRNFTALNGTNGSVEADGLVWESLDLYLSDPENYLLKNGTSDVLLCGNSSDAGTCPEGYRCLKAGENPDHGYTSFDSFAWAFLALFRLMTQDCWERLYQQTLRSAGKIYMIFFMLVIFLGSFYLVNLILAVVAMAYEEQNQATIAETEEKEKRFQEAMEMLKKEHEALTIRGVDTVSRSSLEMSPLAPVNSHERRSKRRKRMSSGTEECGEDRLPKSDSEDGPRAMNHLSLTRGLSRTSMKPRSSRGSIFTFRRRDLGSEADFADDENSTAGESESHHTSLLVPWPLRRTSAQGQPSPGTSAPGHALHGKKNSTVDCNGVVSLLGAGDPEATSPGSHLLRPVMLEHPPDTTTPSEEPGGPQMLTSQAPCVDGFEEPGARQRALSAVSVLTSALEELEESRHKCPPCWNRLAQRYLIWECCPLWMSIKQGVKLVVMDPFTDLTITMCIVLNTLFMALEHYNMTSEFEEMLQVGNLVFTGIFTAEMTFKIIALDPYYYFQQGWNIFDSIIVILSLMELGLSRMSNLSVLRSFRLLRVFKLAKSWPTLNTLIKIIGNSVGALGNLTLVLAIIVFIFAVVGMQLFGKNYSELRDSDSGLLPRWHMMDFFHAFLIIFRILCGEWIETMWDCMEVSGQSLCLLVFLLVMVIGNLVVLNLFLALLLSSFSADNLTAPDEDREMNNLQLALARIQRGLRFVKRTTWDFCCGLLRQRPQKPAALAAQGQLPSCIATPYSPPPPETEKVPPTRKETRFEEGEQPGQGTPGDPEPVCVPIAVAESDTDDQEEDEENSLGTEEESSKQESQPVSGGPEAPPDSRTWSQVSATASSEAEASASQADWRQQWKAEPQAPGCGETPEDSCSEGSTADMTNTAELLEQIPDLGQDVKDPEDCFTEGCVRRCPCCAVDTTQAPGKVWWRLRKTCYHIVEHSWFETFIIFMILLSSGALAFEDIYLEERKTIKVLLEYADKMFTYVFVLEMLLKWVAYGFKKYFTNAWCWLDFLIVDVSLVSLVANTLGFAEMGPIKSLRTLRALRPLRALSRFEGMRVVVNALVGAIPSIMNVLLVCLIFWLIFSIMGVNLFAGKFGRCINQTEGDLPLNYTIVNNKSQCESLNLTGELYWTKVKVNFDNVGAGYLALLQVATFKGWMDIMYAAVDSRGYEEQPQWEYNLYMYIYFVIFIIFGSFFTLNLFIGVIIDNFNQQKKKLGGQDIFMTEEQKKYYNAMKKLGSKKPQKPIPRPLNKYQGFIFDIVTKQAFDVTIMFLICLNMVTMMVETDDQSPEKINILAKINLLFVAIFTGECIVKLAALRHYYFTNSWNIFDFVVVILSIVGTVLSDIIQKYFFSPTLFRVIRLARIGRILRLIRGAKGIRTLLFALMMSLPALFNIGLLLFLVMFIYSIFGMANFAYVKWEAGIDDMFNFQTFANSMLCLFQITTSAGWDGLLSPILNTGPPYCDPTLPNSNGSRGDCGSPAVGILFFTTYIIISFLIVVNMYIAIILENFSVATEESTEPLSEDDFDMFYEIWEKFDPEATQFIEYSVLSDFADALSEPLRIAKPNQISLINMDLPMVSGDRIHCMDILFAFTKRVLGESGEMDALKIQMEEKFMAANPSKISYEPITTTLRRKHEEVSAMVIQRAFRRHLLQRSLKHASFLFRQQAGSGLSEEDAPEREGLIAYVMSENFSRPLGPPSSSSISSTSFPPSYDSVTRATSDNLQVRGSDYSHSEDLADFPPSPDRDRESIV
Here, each record is paired with measured pIC50 data.
Field pIC50 (float): negative decimal logarithm of the concentration in molar.

// below: answered molecules
COc1cccc(CN2CCC2)c1CNc1cc(F)c(S(=O)(=O)Nc2cscn2)c(F)c1 [Example 209, 2,2,2-trifluoroacetate] = 4.52
O=S(=O)(Nc1ncccn1)c1c(F)cc(NCc2c(F)cccc2CN2CCC2)cc1F [Example 145, 2,2,2-trifluoroacetate] = 4.52
C[C@H](Sc1cc(F)c(S(=O)(=O)Nc2nccs2)cc1Cl)c1ccccc1 [Example 125] = 5.47

Now take the following molecule into account.
Q. Could you share which pIC50 value was measured for C[C@H](Oc1cc(F)c(S(=O)(=O)Nc2nccs2)cc1Cl)c1c(F)cccc1F [Example 119] ?
A. 5.74
